meta.source: the supplement of paper PMC7125110

B1: glmS ribozyme (parent)
chain: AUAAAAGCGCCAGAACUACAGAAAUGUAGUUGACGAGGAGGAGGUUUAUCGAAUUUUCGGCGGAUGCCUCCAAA

variants of: B1; assay: self-cleavage kobs at 160 uM GlcN6P; higher = faster cleavage; RNA array; conditions: with glucosamine-6-phosphate
Variants at the floor of the assay were thinned out.
MEASURED PARAMETER: self-cleavage kobs at 160 uM GlcN6P

Use the examples below as a reference point.
| POLYMER SEQUENCE | self-cleavage kobs at 160 uM GlcN6P |
| --- | --- |
| AUAAAAGCGCCAGAACUACAGAAAUGUAGUUGACGAGGAGGAGGUGUCUCGAAUUUUCGGCGGAUGCCUCCAAA | < 1e-05 s⁻¹ |
| AUAAACGCGCCAGAACUACAGAAAUGUAGUUGACGAGGAGGAGGUUUAUCGAAUUGUCGGCGGAUGCCUCCAAA | < 1e-05 s⁻¹ |
| AUAAAAGAGCCAGAACUACAGAAAUGUAGUUGACGAGGAGGAGGUUUAUCGAAUUUUCGACGGAUGCCUCCAAA | < 1e-05 s⁻¹ |
| AUAAAAGCGCCAGAACUACAGAAAUGUAGUUGACGAGGAGGAGAUUUAUCGAAUUUUCGGCGGAUGCCUCCAAA | 3.7e-05 s⁻¹ |
| AUAAAAGCGCCGCAACUACAGAAAUGUAGUUGACGAGGAGGAGGUUUAUCGAAUUUUCGGCGGAUGCCUCCAAA | < 1e-05 s⁻¹ |
| AUAAAAGCGCCAGAUCUACAGAAAUGUAGUUGACGAGGAGGAGGUUUAUCGAAAUUUCGGCGGAUGCCUCCAAA | 0.00059 s⁻¹ |
| AUAAAAGCGCCAGAACUACAGAAAUGUAGUUGACGAGGAGGAGGUUCAUCGAAUUUUCGGCCGAUGCCUCCAAA | < 1e-05 s⁻¹ |
| AUAAAAGCGCCAGAUCUACAGAAAUGUACUUGACGAGGAGGAGGUUUAUCGAAUUUUCGGCGGAUGCCUCCAAA | 0.000116 s⁻¹ |
| AUAAAAGCGCCAGAAUUACAGAAAUGUAGUUGACGAGGAGGGGGUUUUUCGAAUUUUCGGCGGAUUCCUCCAAA | < 1e-05 s⁻¹ |
| AUAAAAGCGCCAGAACUACAGAAAUGUAGUUGACGAGGAGGAGGUUUAUCGAAUUUUCGGCGGAGUCCUCCAAA | 9.38e-05 s⁻¹ |

Below: the item to evaluate.
Query block: Data request, read-out self-cleavage kobs at 160 uM GlcN6P, for AUAAAAGCGCCAGAACUACAGAAAUGUAGUUGACGAGCAGGCGGUUUAUCGAAUUUUCGGCGGAUGCCUCCAAA
Result block: < 1e-05 s⁻¹
